target: EphA4 ligand-binding domain (human, amino acids 22-203) (human, UniProt P54764 22-203, biotin on primary amines (EZ link NHS biotin) in the AlphaScreen assays only)
Sequence (P54764 22-203): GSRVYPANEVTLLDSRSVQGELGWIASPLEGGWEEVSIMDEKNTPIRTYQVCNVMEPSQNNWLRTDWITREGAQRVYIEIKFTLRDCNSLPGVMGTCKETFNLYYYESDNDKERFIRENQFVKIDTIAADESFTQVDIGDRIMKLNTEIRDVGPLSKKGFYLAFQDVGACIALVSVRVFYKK
measurement_notes: SPR; kd1

- binder: "Nb 57 (VHH, biotin on primary amines (EZ link NHS biotin) in the Eph receptor selectivity AlphaScreen only) VHH: QVQLQESGGGLVQPGGSLRLSCAASGFTFSSYYMYWVRQAPGKGLEWVSTINTGGGSTNYADSVKGRFIISRDNAKNTVYLQMNSLKPEDTAVYYCNAFAAGWGPDYWGQGTQVTVSS"
  unit_symbol: "s⁻¹"
  koff: 0.257
- binder: "Nb 31 (VHH, biotin on primary amines (EZ link NHS biotin) in the Eph receptor selectivity AlphaScreen only) VHH: QVQLQESGGGLVQAGGSLRLSCAASGFASDAYAIGWFRQAPGTKREMIAAVTKAGATNYANPVKGRFTISRDDAKNMVYLQMNNLKPEDSAVYYCNAISPLWDEYDFWGPGTQVTVSS"
  unit_symbol: "s⁻¹"
  koff: 0.155
- binder: "Nb 19 (VHH) VHH: QVQLQESGGGLVQPGGSLRLSCAATGRNFNAYSIAWFRQAPGKEREFVASINWSGSNTYYAVAVKGRFTTSRDNAKNTVYLQMNSLKPEDTAVYYCNAFAAGWGPDYWGQGTQVTVSS"
  unit_symbol: "s⁻¹"
  koff: 0.108
- binder: "Nb 60 (VHH, biotin on primary amines (EZ link NHS biotin) in the Eph receptor selectivity AlphaScreen only) VHH: QVQLQESGGGLVQPGGSLRLSCAASGFTFSRYWIYWVRQAPGKQRELVAAITRNGVTNYADSVKGRFTISTDDNKNTVYLQMNSLKSEDTAVYYCNAWGFLLGDIEDYWGQGTQVTVSS"
  unit_symbol: "s⁻¹"
  koff: 0.115
